Test system: NCI-H520
Test: Growth inhibition of additional cancer cell lines
Format: cell-based
Details: Homo sapiens; NCI-H520, NSCLC; 50% inhibition of growth
propertyLabel: pIC50
Keep it numeric: pIC50 is minus log10 of the concentration in mol/L.

// returns reported pIC50 for input `CCC(=O)N1CCc2cc(-c3ccc(C(=O)NCc4cccnc4)cc3)ccc21`
5.44

====

Tested on: AGS cells
Experiment: Cell viability in AGS cells (CellTiter Glo2, 8-point dose response, 4 days)
Type: cell-based, human
Conditions: Homo sapiens, AGS, 96 h
Method: AGS cells were treated with DMSO (no drug control) or each compound in Table 5 in an 8-point dose response for 4 days. Cell viability was measured using CellTiter Glo2. The IC50 of each compound was determined using CDD Vault.
Exercise: for every item that follows, state its recorded IC50.
The answer is to be given in µM; state only the numeric part.

// returns reported IC50 for input `CCC(=O)N(C)Cc1ccc(-c2ccc(C(=O)NCc3cccnc3)cc2)cc1`
3.81

// returns reported IC50 for input `O=C(NCc1cccnc1)c1ccc(-c2ccc3c(c2)CCN3C(=O)C2CC2)cc1`
2.94

// returns reported IC50 for input `CCC(=O)N1CCc2cc(-c3cnc(C(=O)NCc4cccnc4)nc3)ccc21`
7.27

// returns reported IC50 for input `CCC(=O)N(C)c1ccc(-c2ccc(C(=O)NCc3cncc(C)c3)cc2)cc1`
6.69

// returns reported IC50 for input `CCC(=O)N1CCc2cc(-c3ccc(C(=O)NCc4ccccn4)cc3)ccc21`
15.5

// returns reported IC50 for input `CCC(=O)N1CCc2cc(-c3ccc(C(=O)NCc4cccnc4)cc3)cc(C)c21`
1.05
